- TESTED TARGET: F508delCFTR (Homo sapiens, UniProt P13569, DEL508-508)
- Construct: expressed in transfected cells; host or cells: CFBE41o- human lung-derived epithelial cells (CFBE4lo-F508delCFTR-HRP), doxycycline-inducible
- Sequence (P13569 with tags, fused parts or gaps DEL508-508): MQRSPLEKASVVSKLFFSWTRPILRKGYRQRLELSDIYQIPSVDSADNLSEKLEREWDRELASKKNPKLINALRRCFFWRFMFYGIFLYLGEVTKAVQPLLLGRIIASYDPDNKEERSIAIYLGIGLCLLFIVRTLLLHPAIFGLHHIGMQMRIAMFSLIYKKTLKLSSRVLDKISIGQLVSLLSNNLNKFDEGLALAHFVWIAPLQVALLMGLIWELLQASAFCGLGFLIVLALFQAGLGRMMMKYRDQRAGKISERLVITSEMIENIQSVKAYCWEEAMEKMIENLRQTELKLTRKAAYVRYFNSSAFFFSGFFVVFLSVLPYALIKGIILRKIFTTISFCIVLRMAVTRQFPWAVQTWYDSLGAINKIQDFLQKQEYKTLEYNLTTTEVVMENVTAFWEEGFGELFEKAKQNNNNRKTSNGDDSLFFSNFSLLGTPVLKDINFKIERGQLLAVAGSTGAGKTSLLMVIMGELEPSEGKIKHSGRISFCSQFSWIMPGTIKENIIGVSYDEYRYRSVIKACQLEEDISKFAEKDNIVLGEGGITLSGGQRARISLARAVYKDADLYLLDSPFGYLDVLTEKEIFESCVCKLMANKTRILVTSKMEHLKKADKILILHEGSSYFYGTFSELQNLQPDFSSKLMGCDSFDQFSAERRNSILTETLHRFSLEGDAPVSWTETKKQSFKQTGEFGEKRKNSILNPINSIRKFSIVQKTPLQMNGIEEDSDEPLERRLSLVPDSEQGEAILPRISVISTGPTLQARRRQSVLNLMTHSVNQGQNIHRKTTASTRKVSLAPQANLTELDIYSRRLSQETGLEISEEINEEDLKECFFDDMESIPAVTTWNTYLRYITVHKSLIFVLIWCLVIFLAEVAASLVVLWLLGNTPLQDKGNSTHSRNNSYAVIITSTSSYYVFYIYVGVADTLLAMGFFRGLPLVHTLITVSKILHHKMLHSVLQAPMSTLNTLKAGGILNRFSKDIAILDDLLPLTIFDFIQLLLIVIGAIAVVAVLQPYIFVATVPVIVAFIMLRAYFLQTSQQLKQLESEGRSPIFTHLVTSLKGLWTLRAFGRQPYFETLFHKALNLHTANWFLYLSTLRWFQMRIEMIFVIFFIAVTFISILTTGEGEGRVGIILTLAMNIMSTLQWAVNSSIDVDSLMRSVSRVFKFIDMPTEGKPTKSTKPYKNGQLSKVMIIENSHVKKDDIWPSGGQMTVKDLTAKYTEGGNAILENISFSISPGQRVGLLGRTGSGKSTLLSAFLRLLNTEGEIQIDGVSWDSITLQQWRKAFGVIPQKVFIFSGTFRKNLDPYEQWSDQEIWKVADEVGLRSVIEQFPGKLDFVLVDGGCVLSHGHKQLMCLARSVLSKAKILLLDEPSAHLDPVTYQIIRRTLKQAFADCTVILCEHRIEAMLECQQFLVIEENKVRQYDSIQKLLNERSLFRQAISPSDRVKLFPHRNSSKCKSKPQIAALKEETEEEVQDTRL
- RUN DESCRIPTION: Cell Surface Expression-Horse Radish Peroxidase (CSE-HRP) Assay
- Assay type: cell-based
- RECORDED CONDITIONS: CSE-HRP; test compound without co-corrector; read-out: EC50 (without co-corrector)
Give EC50 for every item shown.

Reported EC50 for COc1ccc(-c2ccc(C#N)cc2)cc1CN[C@H]1[C@H](C(C)(C)C)[C@@H](C(=O)O)N(C(=O)C2CCCCC2)[C@H]1c1ccccc1 : what is it?
< 1 µM

Reported EC50 for COc1ccc(C(C)(C)C)cc1CN[C@H]1[C@H](C(C)(C)C)[C@@H](C(=O)O)N(C(=O)c2c(C)nn(-c3ccccc3)c2C)[C@H]1c1ccccc1 : what is it?
1 to 10 µM

Reported EC50 for COc1cc(C(F)(F)F)ccc1CN[C@@H]1[C@@H](C(C)(C)C)[C@H](C(=O)O)N(C(=O)C2CCCCC2)[C@@H]1c1cccnc1N(C)C (racemic) : what is it?
1 to 10 µM

---

- TESTED TARGET: F508delCFTR (Homo sapiens, UniProt P13569, DEL508-508)
- Construct: expressed in transfected cells; host or cells: CFBE41o- human lung-derived epithelial cells (CFBE4lo-F508delCFTR-HRP), doxycycline-inducible
- RUN DESCRIPTION: Cell Surface Expression-Horse Radish Peroxidase (CSE-HRP) Assay
- Format: cell-based
- RECORDED CONDITIONS: test compound without co-corrector; read-out: EC50 (without co-corrector)
pEC50: −log10 of the molar value.
Give pEC50 for every item shown.

Record COc1ncc(C(F)(F)F)cc1CN[C@H]1[C@H](C(C)(C)C)[C@@H](C(=O)O)N(C(=O)OC(C)C)[C@H]1c1cccnc1OC [II-512] : what is its pEC50 with F508delCFTR (Homo sapiens, UniProt P13569, DEL508-508)?
5.00 to 6.00

Record COc1cc(Cl)ccc1CN[C@@H]1[C@@H](C(C)(C)C)[C@H](C(=O)O)N(C(=O)C2CCCCC2)[C@@H]1c1ccccc1 (racemic) [III-30] : what is its pEC50 with F508delCFTR (Homo sapiens, UniProt P13569, DEL508-508)?
5.00 to 6.00

Record COc1cc(C(F)(F)F)ccc1CN[C@@H]1[C@@H](C(C)(C)C)[C@H](C(=O)O)N(C(=O)[C@H](C)c2ccccc2)[C@@H]1c1ccccc1 [Example I-45] : what is its pEC50 with F508delCFTR (Homo sapiens, UniProt P13569, DEL508-508)?
< 5.00

---

- TESTED TARGET: F508delCFTR (Homo sapiens, UniProt P13569, DEL508-508)
- Construct: expressed in transfected cells; host or cells: CFBE41o- human lung-derived epithelial cells (CFBE4lo-F508delCFTR-HRP), doxycycline-inducible
- RUN DESCRIPTION: Cell Surface Expression-Horse Radish Peroxidase (CSE-HRP) Assay;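 as to Maximum % activity (with co-corrector): co-corrector and positive control are both the same reference corrector at 2 µM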
- Assay type: cell-based
- RECORDED CONDITIONS: with co-corrector (2 μM); maximum at any tested concentration, normalized to on-plate positive control
PARAMETER MEASURED: Maximum % activity (with co-corrector)

INSERT INTO assay_data (molecule, obs_value) VALUES
  ('COc1nc(C(C)(C)C)ccc1CN[C@H]1[C@H](C(C)(C)C)[C@@H](C(=O)O)N(C(=O)[C@@H]2CCCCO2)[C@H]1c1cccnc1N(C)C [Example I-235]', '+++ (≥350)'),
  ('COc1ccc(C2CCC2)cc1CN[C@H]1[C@H](C(C)(C)C)[C@@H](C(=O)O)N(C(=O)C2CCCCC2)[C@H]1c1ccccc1 [Example I-68]', '+++ (≥350)');

---

Give pEC50 for every item shown.
- TESTED TARGET: F508delCFTR (Homo sapiens, UniProt P13569, DEL508-508)
- Construct: expressed in transfected cells; host or cells: CFBE41o- human lung-derived epithelial cells (CFBE4lo-F508delCFTR-HRP), doxycycline-inducible
- RUN DESCRIPTION: Cell Surface Expression-Horse Radish Peroxidase (CSE-HRP) Assay
- Assay type: cell-based
- RECORDED CONDITIONS: CSE-HRP; test compound without co-corrector; read-out: EC50 (without co-corrector)
pEC50: −log10 of the molar value.

Reported pEC50 for COc1ccc(C(C)(C)C)cc1CN[C@H]1[C@H](C(C)(C)C)[C@@H](C(=O)O)N(C(=O)[C@H]2OCC[C@H]2C)[C@H]1c1ccccc1 (relative stereo) : what is it?
5.00 to 6.00

Reported pEC50 for COc1cc(C(F)(F)F)ccc1CN[C@H]1[C@H](C(C)(C)C)[C@@H](C(=O)O)N(C(=O)C2CCCCC2)[C@H]1c1ccccc1F : what is it?
5.00 to 6.00

Reported pEC50 for COc1ccc(-c2ccco2)cc1CN[C@H]1[C@H](C(C)(C)C)[C@@H](C(=O)O)N(C(=O)C2CCCCC2)[C@H]1c1ccccc1 : what is it?
5.00 to 6.00

Reported pEC50 for COc1ccc(C(C)(C)C)cc1CN[C@H]1[C@H](C(C)(C)C)[C@@H](C(=O)O)N(C(=O)C2CCCCS2(=O)=O)[C@H]1c1ccccc1 (stereo partly drawn) : what is it?
5.00 to 6.00

Reported pEC50 for COc1ccc(C(F)(F)F)cc1CN[C@@H]1[C@@H](C(C)(C)C)[C@H](C(=O)O)N(C(=O)C2CCC3(CC2)CC3)[C@@H]1c1ccccc1 (racemic) : what is it?
5.00 to 6.00

Reported pEC50 for COc1ccc(-c2ccccc2C)cc1CN[C@H]1[C@H](C(C)(C)C)[C@@H](C(=O)O)N(C(=O)C2CCCCC2)[C@H]1c1ccccc1 : what is it?
> 6.00

---

- TESTED TARGET: F508delCFTR (Homo sapiens, UniProt P13569, DEL508-508)
- Construct: expressed in transfected cells; host or cells: CFBE41o- human lung-derived epithelial cells (CFBE4lo-F508delCFTR-HRP), doxycycline-inducible
- RUN DESCRIPTION: Cell Surface Expression-Horse Radish Peroxidase (CSE-HRP) Assay
- Type: cell-based
- RECORDED CONDITIONS: test compound without co-corrector; read-out: EC50 (without co-corrector)
Give EC50 for every item shown.

Reported EC50 for COc1nc(C(C)(C)C)ccc1CN[C@H]1[C@H](C(C)(C)C)[C@@H](C(=O)O)N(C(=O)C2Cc3ccccc3O2)[C@H]1c1ccccc1 (single isomer, unassigned) [II-430] : what is it?
< 1000 nM

Reported EC50 for COc1ccc(C(C)(C)C)cc1CN[C@H]1[C@H](C(C)(C)C)[C@@H](C(=O)O)N(C(=O)c2cn(C)cc(C)c2=O)[C@H]1c1ccccc1 : what is it?
> 10000 nM

Reported EC50 for COc1ncc(-c2ccc(F)cc2F)cc1CN[C@H]1[C@H](C(C)(C)C)[C@@H](C(=O)O)N(C(=O)C2CCCCC2)[C@H]1c1cccnc1N(C)C : what is it?
< 1000 nM

Reported EC50 for COc1ccc(C2(C#N)CCC2)cc1CN[C@H]1[C@H](C(C)(C)C)[C@@H](C(=O)O)N(C(=O)C2CCCCC2)[C@H]1c1ccccc1 : what is it?
1000 to 10000 nM

Reported EC50 for COc1ccc(C(C)(C)C)cc1CN[C@H]1[C@H](C(C)(C)C)[C@@H](C(=O)O)N(C(=O)C2CCCCC2)[C@H]1c1ccccc1 : what is it?
< 1000 nM

Reported EC50 for COc1ccc(C(C)(C)C)cc1CN[C@H]1[C@H](C(C)(C)C)[C@@H](C(=O)O)N(C(=O)OC(C)C)[C@H]1c1ccccc1F : what is it?
1000 to 10000 nM

---

Give EC50 for every item shown.
- TESTED TARGET: F508delCFTR (Homo sapiens, UniProt P13569, DEL508-508)
- Construct: expressed in transfected cells; host or cells: CFBE41o- human lung-derived epithelial cells (CFBE4lo-F508delCFTR-HRP), doxycycline-inducible
- RUN DESCRIPTION: Cell Surface Expression-Horse Radish Peroxidase (CSE-HRP) Assay
- Format: cell-based
- RECORDED CONDITIONS: with co-corrector (2 μM of 3-[(2R,4R)-4-({[1-(2,2-difluoro-1,3-benzodioxol-5-yl)cyclopropyl]carbonyl}amino)-7-methoxy-3,4-dihydro-2H-chromen-2-yl]benzoic acid); read-out: EC50 (with co-corrector)

Reported EC50 for COc1cc(N[C@H]2[C@H](C(C)(C)C)[C@@H](C(=O)O)N(C(=O)C3CCCCC3)[C@H]2c2ccccc2)nc(OC)n1 (racemic) : what is it?
1 to 10 µM

Reported EC50 for COc1ccc(C23CC(C2)C3)cc1CN[C@H]1[C@H](C(C)(C)C)[C@@H](C(=O)O)N(C(=O)[C@@H]2CCCC(F)(F)C2)[C@H]1c1ccccc1 : what is it?
< 1 µM

Reported EC50 for COc1ccc(C(C)(C)C)cc1CN[C@H]1[C@H](C(C)(C)C)[C@@H](C(=O)O)N(C(=O)C2CCCC2(C)C)[C@H]1c1ccccc1 (stereo partly drawn) : what is it?
< 1 µM

Reported EC50 for COc1cc(C(F)(F)F)ccc1CN[C@H]1[C@H](C(C)(C)C)[C@@H](C(=O)O)N(C(=O)[C@H]2CCC[C@H](OC)C2)[C@H]1c1ccccc1 : what is it?
1 to 10 µM

Reported EC50 for COc1nc2ccccc2cc1CN[C@H]1[C@H](C(C)(C)C)[C@@H](C(=O)O)N(C(=O)C2CCOCC2)[C@H]1c1ccccc1C(C)C : what is it?
< 1 µM

Reported EC50 for COc1nc(C(C)(C)C)ccc1CN[C@H]1[C@H](C(C)(C)C)[C@@H](C(=O)O)N(C(=O)C2CCCC(F)(F)C2)[C@H]1c1ccccc1 (stereo partly drawn) [Example I-180] : what is it?
1 to 10 µM

Reported EC50 for COc1cc(OC)nc(N[C@@H]2[C@@H](C(C)(C)C)[C@H](C(=O)O)N(C(=O)C3CCCCC3)[C@@H]2c2ccccc2)n1 (racemic) : what is it?
1 to 10 µM

Reported EC50 for COc1ccc(C(C)(C)C)cc1CN[C@H]1[C@H](C(C)(C)C)[C@@H](C(=O)O)N(C(=O)c2ccc3cccc(F)c3n2)[C@H]1c1ccccc1 : what is it?
1 to 10 µM

Reported EC50 for COc1ccc(-c2ccccc2)cc1CN[C@H]1[C@H](C(C)(C)C)[C@@H](C(=O)O)N(C(=O)C2CCCCC2)[C@H]1c1ccccc1 : what is it?
< 1 µM

Reported EC50 for CC(C)(C)[C@@H]1[C@@H](NCc2cccc(OC3CCOCC3)n2)[C@@H](c2ccccc2)N(C(=O)C2CCCCC2)[C@H]1C(=O)O (racemic) : what is it?
1 to 10 µM

Reported EC50 for COc1ncc(-c2ccccc2F)cc1CN[C@H]1[C@H](C(C)(C)C)[C@@H](C(=O)O)N(C(=O)C2CCCCC2)[C@H]1c1ccccc1 : what is it?
< 1 µM

Reported EC50 for COc1ncc(C2CCC2)cc1CN[C@H]1[C@H](C(C)(C)C)[C@@H](C(=O)O)N(C(=O)[C@@H]2CCCO2)[C@H]1c1ccccc1C(F)F : what is it?
1 to 10 µM
